Source of measurements: PubChem BioAssay (NCI)

Please go through the items and note down their TGI.
System: MALME-3M melanoma
measurement_notes: NCI tumour cell line growth inhibition, 48 h

// query Can you look up the measured TGI of [Co+2].[O-]c1ccccc1C=NCc1ccccc1.[O-]c1ccccc1C=NCc1ccccc1 for me?
// result > 100 µM

// query Can you look up the measured TGI of O=S(=O)(O)c1cc(N=Nc2c(O)ccc3ccccc23)c2c(S(=O)(=O)O)cccc2c1 for me?
// result > 100 µM

// query Can you look up the measured TGI of Cc1cccc(-c2nnc3s/c(=C\c4ccc5c(c4)OCO5)c(=O)n23)c1 for me?
// result > 100 µM

// query Can you look up the measured TGI of CC(=O)CC(=O)Nc1c(C)[c]([Hg][O]C(C)=O)c(C)[c]([Hg][O]C(C)=O)[c]1[Hg][O]C(C)=O for me?
// result 20.4 µM

// query Can you look up the measured TGI of O=C1/C(=C/c2ccc(O)c(O)c2)COc2ccc(-c3ccccc3)cc21 for me?
// result 5.55 µM

// query Can you look up the measured TGI of C[C@H](O)CNc1cc(-c2[nH]c3cccnc3c2-c2ccc(F)cc2)ccn1 for me?
// result > 25 µM

###

System: RPMI-8226 leukemia
measurement_notes: NCI tumour cell line growth inhibition, 48 h
Please go through the items and note down their TGI.

// query Can you look up the measured TGI of NC(=O)c1c2c(n3ccccc13)C(=O)c1ccccc1C2=O for me?
// result > 100 µM

// query Can you look up the measured TGI of CCOc1ccc(NC(=O)C(=O)C2C(=O)Nc3ccccc3S2=O)cc1 (centres undefined) for me?
// result > 100 µM

// query Can you look up the measured TGI of CCOC(=O)C(Cc1ccc([N+](=O)[O-])cc1)NC(=O)CC1c2ccccc2-c2ccccc21 (centres undefined) for me?
// result > 100 µM

// query Can you look up the measured TGI of C[C@H](O)CNc1cc(-c2[nH]c3cccnc3c2-c2ccc(F)cc2)ccn1 for me?
// result > 25 µM

// query Can you look up the measured TGI of Cc1cc2cc3c(Cl)c(CCCl)c(C)nc3cc2c(Cl)c1CCCl for me?
// result 36.5 µM

// query Can you look up the measured TGI of COC(=O)[C@@]12CCCC(=O)[C@@H]1[C@H]1CCC[C@H]12 for me?
// result > 100 µM

// query Can you look up the measured TGI of Cc1ccc(Nc2nc(C)c(C(=O)CC(=O)C(=O)Nc3ccc(Cl)cc3)s2)cc1 for me?
// result > 100 µM

// query Can you look up the measured TGI of CC1=C(C(=O)Nc2cc(F)c(F)cc2F)C(c2ccc3c(c2)OCO3)C(C(=O)Nc2cc(F)c(F)cc2F)=C(C)N1 for me?
// result 52.9 µM

// query Can you look up the measured TGI of COc1cc(/C=C/c2ccc(/C=C/c3cc(OC)c(OC)c(OC)c3)cc2)cc(OC)c1OC for me?
// result > 100 µM

// query Can you look up the measured TGI of CC1CN=C(N(C(=O)Nc2ccccc2)c2ccccc2)S1 (centres undefined) for me?
// result 67.9 µM

// query Can you look up the measured TGI of C=C(CN(C)C)C(=O)c1ccc(OC2OC(COC(C)=O)C(OC(C)=O)C(OC(C)=O)C2OC(C)=O)cc1 (centres undefined) for me?
// result > 100 µM

// query Can you look up the measured TGI of S=C(N/N=C/c1ccccc1)NC12CC3CC(CC(C3)C1)C2 for me?
// result 95.5 µM

// query Can you look up the measured TGI of CCc1c2c(nc3ccc(OC(=O)NCc4ccc(B5OC(C)(C)C(C)(C)O5)cc4)cc13)-c1cc3c(c(=O)n1C2)COC(=O)[C@]3(O)CC for me?
// result 3.48 µM

// query Can you look up the measured TGI of CCN(CC)CCNc1ccc2ncn3c4ccccc4c(=O)c1c23 for me?
// result > 100 µM

// query Can you look up the measured TGI of O=C1CC[C@@]2(O)[C@H]3Cc4ccc(-c5cccc(O)c5)c5c4[C@@]2(CCN3CC2CC2)[C@H]1O5 for me?
// result 52.1 µM

// query Can you look up the measured TGI of Cc1cnc(Cl)nc1C(C#N)c1nc2ccccc2s1 (centres undefined) for me?
// result > 100 µM

// query Can you look up the measured TGI of CN(C)CCc1ccc(Cl)cc1Cl for me?
// result > 100 µM

// query Can you look up the measured TGI of CC(=O)N1N=C(c2cc(C)ccc2O)CC1c1cccc(Cl)c1 (centres undefined) for me?
// result 26.5 µM

// query Can you look up the measured TGI of O=c1c(O)c(-c2ccccc2)n(O)c2ccc(Cl)cc12 for me?
// result > 100 µM

// query Can you look up the measured TGI of N#Cc1cccc(N2C(=O)c3ccc(C(=O)c4ccc5c(c4)C(=O)N(c4cccc(C#N)c4)C5=O)cc3C2=O)c1 for me?
// result > 100 µM

// query Can you look up the measured TGI of CC(C)(C)c1cc(Cc2ccc([N+](C)(C)C)cc2)c(O)c(C(C)(C)C)c1 for me?
// result 31.9 µM

// query Can you look up the measured TGI of N#CC(NCCc1ccccc1)c1ccccc1 (centres undefined) for me?
// result > 100 µM

// query Can you look up the measured TGI of COC(=O)c1nn(-c2ccccc2)c(=O)cc1N=[N+]=[N-] for me?
// result > 100 µM

// query Can you look up the measured TGI of COS(=O)(=O)OCCC(NC(=O)OCc1ccccc1)C(=O)OCc1ccccc1 (centres undefined) for me?
// result > 100 µM

###

Test system: OVCAR-3 ovarian
measurement_notes: NCI tumour cell line growth inhibition, 48 h
Please go through the items and note down their TGI.

// query Can you look up the measured TGI of O=C1CC[C@@]2(O)[C@H]3Cc4ccc(-c5cccc(O)c5)c5c4[C@@]2(CCN3CC2CC2)[C@H]1O5 for me?
// result 43.9 µM

// query Can you look up the measured TGI of CCN(CC)CCNc1ccc2ncn3c4ccccc4c(=O)c1c23 for me?
// result 49.7 µM

// query Can you look up the measured TGI of NC(=O)NC(=O)c1cccc(NC(=O)CI)c1 for me?
// result < 0.01 µM

// query Can you look up the measured TGI of COc1ccc(NC(=S)N=Nc2c(O)[nH]c3ccccc23)cc1 for me?
// result > 58.6 µM

// query Can you look up the measured TGI of C/C(=N\NC(C)(C)C)c1sc(-c2nc(C)c(/C(C)=N/NC(C)(C)C)s2)nc1C for me?
// result > 100 µM

// query Can you look up the measured TGI of Clc1ccc(Nc2nn3c(CCCCCCCCc4nnc5sc(Nc6ccc(Cl)cc6)nn45)nnc3s2)cc1 for me?
// result > 100 µM

// query Can you look up the measured TGI of CN(CC(=O)O)S(=O)(=O)c1ccc(F)cc1 for me?
// result > 100 µM

###

Tested on: OVCAR-3 ovarian
measurement_notes: NCI tumour cell line growth inhibition, 48 h
metric_name: TGI

// query Can you look up the measured TGI of CC1=NN(c2cccc(Cl)c2)C2(SCC(=O)N2c2nc3ccccc3s2)/C1=C\c1ccccc1 (stereo unspecified) for me?
// result > 100 µM

// query Can you look up the measured TGI of N#Cc1cc(-c2nc3ccc(F)cc3s2)ccc1N for me?
// result > 100 µM

// query Can you look up the measured TGI of O=C(Nc1ccccc1Cl)c1cc(S(=O)(=O)Nc2n[nH]c(=O)n2-c2ccccc2)c(S)cc1Cl for me?
// result > 100 µM

// query Can you look up the measured TGI of CN(C)C(=O)Nc1c([N+](=O)[O-])cc(C(F)(F)F)cc1[N+](=O)[O-] for me?
// result 53.7 µM

// query Can you look up the measured TGI of COCCCN(Cc1cc(OC)c(OC)c(OC)c1)C(=S)Nc1cccc(Cl)c1 for me?
// result > 100 µM

// query Can you look up the measured TGI of CC(=O)N1N=C(c2cc(C)ccc2O)CC1c1cccc(Cl)c1 (stereo unspecified) for me?
// result > 100 µM

###

Please go through the items and note down their TGI.
Tested on: UACC-257 melanoma
measurement_notes: NCI tumour cell line growth inhibition, 48 h
# value in µM; strip the unit string

// query Can you look up the measured TGI of CCN(CC)CCOc1nc2c3ccc(Cl)cc3nn2c2ccccc12 for me?
// result 4.02

// query Can you look up the measured TGI of O=C1c2ccccc2C(=O)c2c1ccc(C(Br)Br)c2Cl for me?
// result 24.8

// query Can you look up the measured TGI of Nc1cc(N)c2nc(-c3ccccc3)c(Sc3ccc(Cl)c(Cl)c3)nc2c1 for me?
// result 59

// query Can you look up the measured TGI of COc1ccc(C(=O)n2nc(/C=C/c3ccc(O)c(OC)c3)cc2/C=C/c2ccc(O)c(OC)c2)cc1 for me?
// result 12.1

// query Can you look up the measured TGI of C=CS(=O)(=O)c1c2cc(OC)ccc2nc2ccc(OC)cc12 for me?
// result 24

// query Can you look up the measured TGI of O=C(CCN1CCCCC1)Nc1ccc2sc3ccccc3c(=O)c2n1 for me?
// result 46.3

// query Can you look up the measured TGI of N#CC(C#N)N=Nc1ccc(-c2nc3ccccc3[nH]2)cc1 for me?
// result 40.9
